Biological target: Vitamin D3 receptor (Rattus norvegicus) (UniProt P13053)
Sequence (P13053 whole entry): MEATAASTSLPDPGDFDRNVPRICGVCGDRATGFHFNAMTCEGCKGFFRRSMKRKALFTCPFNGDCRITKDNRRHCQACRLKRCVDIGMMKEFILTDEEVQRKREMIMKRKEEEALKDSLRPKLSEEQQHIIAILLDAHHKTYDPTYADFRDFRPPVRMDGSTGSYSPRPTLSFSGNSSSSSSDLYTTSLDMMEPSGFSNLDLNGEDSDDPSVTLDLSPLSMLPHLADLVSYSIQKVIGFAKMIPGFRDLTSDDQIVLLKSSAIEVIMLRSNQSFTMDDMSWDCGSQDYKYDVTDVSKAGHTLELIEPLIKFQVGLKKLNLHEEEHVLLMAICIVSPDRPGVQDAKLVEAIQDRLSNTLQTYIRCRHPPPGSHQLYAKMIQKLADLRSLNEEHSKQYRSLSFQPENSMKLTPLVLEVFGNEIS
Experiment: In vitro vitamin D receptor-mediated transcriptional activity in rat osteosarcoma ROS 17/2.8 cells
measure_name: ED50 (nM)

Study these solved cases before continuing.
test_smiles	unit_tag	ED50
C=C1/C(=C\C=C2/CCC[C@]3(C)C([C@H](C)CCCC(=O)C(C)(C)C)=CC[C@@H]23)C[C@H](O)C[C@H]1O	nM	0.1
C=C1/C(=C\C=C2/CCC[C@]3(C)[C@@H]([C@H](C)CCCC(C)(C)O)CC[C@@H]23)C[C@@H](O)C[C@@H]1O	nM	0.4

(a) C=C1/C(=C\C=C2/CCC[C@]3(C)C([C@H](C)CCC/C(=N\OC)C(C)(C)C)=CC[C@@H]23)C[C@H](O)C[C@H]1O
(b) C=C1/C(=C\C=C2/CCC[C@]3(C)C([C@H](C)CCC/C(=N\O)C(C)(C)C)=CC[C@@H]23)C[C@H](O)C[C@H]1O
Input: From the items above, decide which of a and b has the lower ED50 reading. Returns: label corresponding to the selected item.
Output: a
(a: 2 nM, b: 10 nM)
